In this section we review reported protein stability index values for a set of variants.
B1: VPS39 (parent)
chain: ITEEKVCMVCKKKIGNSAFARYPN

- Variants of: B1
- MEASUREMENT_NOTES: protein stability index of a GFP-peptide fusion (GPS, HEK-293T) (PSI 1-6); higher = more stable;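 note: lentivirally expressed fusions sorted by FACS into six bins by GFP to DsRed ratio, PSI derived from sequencing read proportions per bin multiplied by bin number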
- STUDY_CONDITIONS: c terminus: a fixed tail appended
REPORTED_ENDPOINT: protein stability index

> print(dat)
    variant.spec  quantitative.result
 1          F19V                 3.27
 2          N24L                 2.27
 3           C7Y                 2.53
 4          C10S                 4.14
 5          K13V                 1.98
 6           C7T                 3.18
 7          K13G                 1.35
 8          G15P                 2.45
 9          A18G                 3.02
10          C10P                 3.97
11           V9G                  3.1
12          F19K                 3.55
